Source listed as patent US20200369728A1.

Item-by-item account of 25 μM % Lysed cells (1 h LDH)
Tested on: SJSA-1 cells
assayMethodText: Cell lysis by peptidomimetic macrocycles (LDH release)
Type: cell-based
testParameters: 25 μM, SJSA-1, 1 h
Bridge positions count the residues as written; N and C are the ends. Square brackets hold non-standard residues; d marks the D form. Peptide text beside a SMILES is read from it. 2Nal = N[C@@H](Cc1ccc2ccccc2c1)C(=O)O; R8 = C=CCCCCCC[C@@](C)(N)C(=O)O; Cba = N[C@@H](CC1CCC1)C(=O)O; S5 = C=CCCC[C@](C)(N)C(=O)O
A number alone suffices; assume %.

[
  {
    "molecule": "CC(=O)N[C@@H](CC(C)C)C(=O)N[C@H](C(=O)N[C@@H](Cc1ccccc1)C(=O)N[C@]1(C)CCCCCCC=CCCC[C@@](C)(C(=O)N[C@@H](CO)C(=O)N[C@@H](C)C(=O)N[C@@H](C)C(N)=O)NC(=O)[C@H](CC2CCC2)NC(=O)[C@H](CCC(N)=O)NC(=O)[C@H](C)NC(=O)[C@H](Cc2ccc3ccccc3c2)NC(=O)[C@H](Cc2ccc(O)cc2)NC(=O)[C@H](CCC(=O)O)NC1=O)[C@@H](C)O [compound 254] (Ac-LTF[R8]EY[2Nal]AQ[Cba][S5]SAA-NH2; staple 4-11)",
    "valueUnit": "%",
    "25 μM % Lysed cells (1 h LDH)": 60
  }
]

For the next question, use this molecule.
Exercise: What value of measured 25 μM % Lysed cells (1 h LDH) is listed for CC(=O)N[C@@H](CC(C)C)C(=O)N[C@H](C(=O)N[C@@H](Cc1ccccc1)C(=O)N[C@]1(C)CCCCCCC=CCCC[C@@](C)(C(=O)N[C@@H](C)C(=O)N[C@@H](C)C(=O)N[C@@H](Cc2ccccc2)C(=O)N[C@H](C)C(N)=O)NC(=O)[C@H](CC(C)C)NC(=O)[C@H](CCC(N)=O)NC(=O)[C@H](C)NC(=O)[C@H](Cc2c[nH]c3ccccc23)NC(=O)[C@H](Cc2ccc(O)cc2)NC(=O)[C@H](CCC(=O)O)NC1=O)[C@@H](C)O (single isomer, unassigned) [compound 219] ?
Key: −1

---

Test system: SJSA-1 cells
assayMethodText: Cell lysis by peptidomimetic macrocycles (LDH release)
Assay type: cell-based
testParameters: 50 μM, SJSA-1, 1 h
Bridge positions count the residues as written; N and C are the ends. Square brackets hold non-standard residues; d marks the D form. Peptide text beside a SMILES is read from it. R8 = C=CCCCCCC[C@@](C)(N)C(=O)O; Cha = N[C@@H](CC1CCCCC1)C(=O)O; S5 = C=CCCC[C@](C)(N)C(=O)O
Reported 50 μM % Lysed cells (1 h LDH) values are given for each entry in this list.
Number in %, nothing else.

[
  {
    "molecule": "CC(=O)N[C@@H](C)C(=O)N[C@@H](CC(C)C)C(=O)N[C@H](C(=O)N[C@@H](Cc1ccccc1)C(=O)N[C@]1(C)CCCCCCC=CCCC[C@@](C)(C(=O)N[C@@H](CO)C(=O)N[C@@H](C)C(=O)N[C@@H](C)C(=O)N[C@@H](C)C(=O)N[C@H](C)C(N)=O)NC(=O)[C@H](CC2CCC2)NC(=O)[C@H](CCC(N)=O)NC(=O)[C@H](C)NC(=O)[C@H](Cc2c[nH]c3ccccc23)NC(=O)[C@H](Cc2ccc(O)cc2)NC(=O)[C@H](CCC(=O)O)NC1=O)[C@@H](C)O (single isomer, unassigned)",
    "numericReadout": 0
  }
]

Exercise: I am curious: what 50 μM % Lysed cells (1 h LDH) value has been reported for CC(=O)N[C@@H](Cc1ccccc1)C(=O)N[C@]1(C)CCCCCCC=CCCC[C@@](C)(C(=O)N[C@@H](Cc2c[nH]cn2)C(=O)N[C@@H](CCCNC(=N)N)C(=O)N[C@@H](Cc2ccccc2)C(=O)N[C@@H](CC2CCCCC2)C(N)=O)NC(=O)[C@H](CC(C)C)NC(=O)[C@H](CCC(N)=O)NC(=O)[C@H](Cc2c[nH]cn2)NC(=O)[C@H](Cc2c[nH]c3ccccc23)NC(=O)[C@H](Cc2c[nH]cn2)NC(=O)[C@H](Cc2c[nH]cn2)NC1=O [compound 55] (Ac-F[R8]HHWHQL[S5]HRF[Cha]-NH2; staple 2-9) ?
Key: 13
